Where do the numbers come from? From the supplement of paper PMC10567573.

B1: SPRY1 (parent)
chain: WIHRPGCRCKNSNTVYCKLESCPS

# Variants of: B1
# MEASUREMENT PROTOCOL: protein stability index of a GFP-peptide fusion (GPS, HEK-293T) (PSI 1-6); higher = more stable;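 further: lentivirally expressed fusions sorted by FACS into six bins by GFP to DsRed ratio, PSI derived from sequencing read proportions per bin multiplied by bin number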
# SETTINGS: c terminus: a fixed tail appended
ASSAY READOUT: protein stability index

> print(dat)
     var  experimental.value
 1  P23N                2.43
 2   P5F                1.79
 3  K18F                1.74
 4   P5Q                2.38
 5  L19Y                2.49
 6  S12C                3.25
 7   W1M                2.88
 8  E20R                2.91
 9  T14P                1.79
10  S24H                2.63
11  T14W                1.85
12   I2T                3.13
13  N11R                 4.1
14   W1F                2.04
15  Y16D                2.91
16   R8L                 2.6
17  K10V                   2
18  S21E                 2.4
19  V15K                2.18
20  L19F                2.06
21   R8A                   3
22   W1I                   3
23   H3D                3.37
24  S21C                 1.8
25  N11Y                2.07
26  P23M                1.56
27   G6W                2.69
28  S21R                2.17
29  V15T                3.03
30  E20S                2.77
31   H3Y                1.59
32  P23L                1.71
33  T14H                1.99
34  N13L                2.31
35   C7F                2.89
36  S21A                2.13
37   C7K                1.49
38  L19D                3.51
39   C9R                1.45
40  K10Y                1.82
41   R8V                2.57
42  K18L                 1.8
43  T14D                3.07
44  K10E                2.73
45  K18Y                1.73
46  Y16A                3.71
